The measured values listed here are drawn from ChEMBL document CHEMBL3352173.

- protocolSummary: Solubility of the compound
- Assay type: physicochemical
Each entry below carries its reported solubility.
readoutKind: solubility

molecule=CO[C@H]1CN(c2nc(C(=O)NCCN3CCCC3=O)c(C(=O)O)s2)CC[C@H]1NC(=O)c1[nH]c(C)c(Cl)c1Cl measured="870 µM"
molecule=CO[C@H]1CN(c2nc(C(=O)NC3COC(C)(C)OC3)c(C(=O)O)s2)CC[C@H]1NC(=O)c1[nH]c(C)c(Cl)c1Cl measured="> 1000 µM"
molecule=COC[C@H](C)NC(=O)c1nc(N2CC[C@@H](NC(=O)c3[nH]c(C)c(Cl)c3Cl)[C@@H](OC)C2)sc1C(=O)O measured="960 µM"
molecule=CO[C@H]1CN(c2nc(C(F)F)c(C(=O)O)s2)CC[C@H]1NC(=O)c1[nH]c(C)c(Cl)c1Cl measured="690 µM"
molecule="Cc1[nH]c(C(=O)N[C@@H]2CCN(c3ncc(C(=O)O)s3)C[C@@H]2N=[N+]=[N-])c(Cl)c1Cl (racemic)" measured="> 1000 µM"
molecule=COCCNC(=O)c1nc(N2CC[C@@H](NC(=O)c3[nH]c(C)c(Cl)c3Cl)[C@@H](OC)C2)sc1C(=O)O measured="880 µM"
molecule=CO[C@H]1CN(c2nc(C)c(C(=O)O)s2)CC[C@H]1NC(=O)c1[nH]c(C)c(Cl)c1Cl measured="450 µM"
